Target: T1, CCR5_S08_1B6 I-OnuI variant (artificial (I-OnuI derived))
T1 chain: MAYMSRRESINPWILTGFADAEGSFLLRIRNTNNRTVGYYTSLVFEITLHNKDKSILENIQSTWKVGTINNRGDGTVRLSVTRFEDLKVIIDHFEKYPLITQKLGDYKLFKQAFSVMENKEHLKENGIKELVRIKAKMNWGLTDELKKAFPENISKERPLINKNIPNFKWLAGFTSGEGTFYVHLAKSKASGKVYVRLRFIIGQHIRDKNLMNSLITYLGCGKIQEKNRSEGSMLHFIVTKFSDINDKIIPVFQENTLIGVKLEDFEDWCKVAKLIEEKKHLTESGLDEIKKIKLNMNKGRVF
Assay: flow; yeast surface display titration; unit as printed (uM)
Settings: label: Alexa Fluor 647 / biotin in cleavage assay
pKd: −log10 of the molar value.
Measured metric: pKd

Query: I have this binder here, CCR5_S08 target (dsDNA) DNA 1: CTTCCAGGAATTCTTTGGCCTG DNA 2: CAGGCCAAAGAATTCCTGGAAG , and I need its recorded pKd.
Reply: ~4.70

The reported numbers originate from patent US20160102323.
